Could you please report measured log10 EC50 for the items listed next?
system: P. falciparum (NF54 or 3D7 strain); test: Assay for P. falciparum proliferation in infected human blood cells (SYBR Green); type: cell-based, Plasmodium falciparum; details: Plasmodium falciparum, Erythrocyte, 72 h, NF54 or 3D7 infected human erythrocytes, 72 hours; read-out: EC50 (nM), inhibitory efficacy in delaying P. falciparum proliferation in infected human blood cells
Scale type: logarithmic (base 10). Underlying EC50 unit: nM.

Answered examples (8):
| molecule | assay_target | log10 EC50 |
| --- | --- | --- |
| Cc1nc2cnc(C(=O)Nc3ccc(C#N)cc3)cn2c1-c1ccc(C(F)(F)F)cc1 [Compound 376] | P. falciparum (NF54 or 3D7 strain) | 3.98 |
| CN(C(=O)c1cn2c(-c3cccc(F)n3)cnc2cn1)c1ccc(C#N)cc1 [Compound 351] | P. falciparum (NF54 or 3D7 strain) | 3.75 |
| CN(C(=O)c1cn2c(-c3ccc(C(F)(F)F)cc3)cnc2cn1)c1ccc(S(C)(=O)=O)cc1 [Compound 501] | P. falciparum (NF54 or 3D7 strain) | 3.16 |
| CN(C)c1ccc(-c2cnc3cnc(CN(C)c4ccc(F)cc4)cn23)cc1 [Compound 36] | P. falciparum (NF54 or 3D7 strain) | 2.52 |
| CN(C(=O)c1cn2c(-c3ccc(C(F)(F)F)cc3)cnc2cn1)c1ccc(Cl)cn1 [Compound 435] | P. falciparum (NF54 or 3D7 strain) | 2.33 |
| CN(C(=O)c1cn2c(-c3ccc4c(ccn4C)c3)cnc2cn1)c1ccc(Cl)nc1 [Compound 84] | P. falciparum (NF54 or 3D7 strain) | 3.11 |
| Cc1cc(Cl)ccc1-c1cnc2cnc(C(=O)N(C)c3ccc(C#N)cc3)cn12 [Compound 26] | P. falciparum (NF54 or 3D7 strain) | 3.92 |
| CN(C(=O)c1cn2c(-c3ccc(OC(C)(C)CN)cc3)cnc2cn1)c1ccc(C#N)cc1 [Compound 402] | P. falciparum (NF54 or 3D7 strain) | 3.56 |

Parameters: items (list). Returns: log10 EC50 for each item.
1. CN(C(=O)c1cn2c(-c3ccc4[nH]ccc4c3)cnc2cn1)c1ccc(Cl)nc1 [Compound 301]
2. COc1ccncc1N(C)C(=O)c1cn2c(-c3ccc(C(F)(F)F)cc3)cnc2cn1 [Compound 303]
3. CN(C(=O)c1cn2c(-c3cnc(N4CCCC4=O)cn3)cnc2cn1)c1ccc(C#N)cc1 [Compound 211]
4. CN(C(=O)c1cn2c(-c3ccc(C(F)(F)F)cc3)cnc2cn1)c1ccc(Br)nn1 [Compound 96]
5. CN(Cc1cn2c(-c3ccc(-c4ccn[nH]4)cc3)cnc2cn1)c1ccc(F)cc1 [Compound 3]
6. CN(C(=O)c1cn2c(-c3ccc(Cl)c(C#N)c3)cnc2cn1)c1ccc(C#N)cc1 [Compound 155]
7. CN(C(=O)c1cn2c(-c3ccc(C(F)(F)F)cc3)cnc2cn1)c1ccc(Br)cc1 [Compound 215]
8. CN(C(=O)c1cn2c(-c3ccc(-c4ccn[nH]4)cc3)cnc2cn1)c1ccc(C#N)cn1 [Compound 182]

Marked response:
[3.08, 3.11, 3.97, 4.00, 1.76, 3.38, 1.93, 3.35]

Parameters: items (list). Returns: log10 EC50 for each item.
1. CN(Cc1cn2c(-c3ccc(-c4nnc(N)s4)cc3)cnc2cn1)c1ccc(Cl)nc1 [Compound 28]
2. CC(=O)c1cnc2cnc(C(=O)N(C)c3ccc(Cl)nc3)cn12 [Compound 33]
3. COc1cncc(-c2cnc3cnc(C(=O)N(C)c4ccc(C#N)cc4)cn23)n1 [Compound 335]
4. CC(=O)Nc1ccc(-c2cnc3cnc(C(=O)N(C)c4ccc(Cl)nc4)cn23)cc1 [Compound 279]
5. CC(C)Oc1ccc(N(C)C(=O)c2cn3c(-c4ccc(C(F)(F)F)cc4)cnc3cn2)cc1 [Compound 436]

Marked response:
1: 1.11; 2: 3.67; 3: 3.73; 4: 2.66; 5: 3.97

Parameters: items (list). Returns: log10 EC50 for each item.
1. Cc1ccc(C(=O)N(C)c2cn3c(-c4ccc(C(F)(F)F)cc4)cnc3cn2)cc1 [Compound 289]
2. COc1ncccc1N(C)C(=O)c1cn2c(-c3ccc(C(F)(F)F)cc3)cnc2cn1 [Compound 492]
3. CN(C(=O)c1cn2c(-c3cnc4c(cnn4C)c3)cnc2cn1)c1ccc(C#N)cc1 [Compound 391]
4. CNc1ccc(-c2cnc3cnc(C(=O)N(C)c4ccc(C#N)cc4)cn23)cc1 [Compound 117]
5. COc1ccc(C(=O)N(C)c2cn3c(-c4ccc(C(F)(F)F)cc4)cnc3cn2)cc1 [Compound 311]
6. CN(C(=O)c1cn2c(-c3ccc(NC(=O)C4CCC[C@H]4N)cc3)cnc2cn1)c1ccc(C#N)cc1 (some centres unmarked) [Compound 255]

Marked response:
1. 3.18
2. 2.58
3. 3.46
4. 1.96
5. 3.44
6. 2.19

Record Cc1cc(C)n(-c2ccc(-c3cnc4cnc(C(=O)N(C)c5ccc(C#N)cc5)cn34)cc2)n1 [Compound 160] . Reported log10 EC50: 3.24

Taken from patent US20150291598A1.
